# system_tested: HLA-DRB1*0701 (human)
# assay: competition binding
# measurement_context: modification not given
pIC50: −log10 of the molar value.
measured_attribute: pIC50

> print(dat)
                    binder  measured.attribute  cmp  observed.value
1    ETLQRTDAPKTHMTH [p37]               pIC50    =            5.50
2    HQYAYDGKDYIALKE [p23]               pIC50    =            4.42
3  FQKWAAVVVPSGQEQR [p46*]               pIC50    =            6.15
4    SQRMEPRAPWIEQEGP [p9]               pIC50    =            4.08
5    AHVAEQLRAYLEGTC [p31]               pIC50    <            4.00
6   TCVEWLRRYLENGKE [p34*]               pIC50    <            4.00
7   EQRYTCHVQHEGLPKP [p48]               pIC50    =            4.53
